# MEASUREMENT TARGET: noradrenergic transporter (Homo sapiens, UniProt P23975)
# Sequence (P23975 whole entry): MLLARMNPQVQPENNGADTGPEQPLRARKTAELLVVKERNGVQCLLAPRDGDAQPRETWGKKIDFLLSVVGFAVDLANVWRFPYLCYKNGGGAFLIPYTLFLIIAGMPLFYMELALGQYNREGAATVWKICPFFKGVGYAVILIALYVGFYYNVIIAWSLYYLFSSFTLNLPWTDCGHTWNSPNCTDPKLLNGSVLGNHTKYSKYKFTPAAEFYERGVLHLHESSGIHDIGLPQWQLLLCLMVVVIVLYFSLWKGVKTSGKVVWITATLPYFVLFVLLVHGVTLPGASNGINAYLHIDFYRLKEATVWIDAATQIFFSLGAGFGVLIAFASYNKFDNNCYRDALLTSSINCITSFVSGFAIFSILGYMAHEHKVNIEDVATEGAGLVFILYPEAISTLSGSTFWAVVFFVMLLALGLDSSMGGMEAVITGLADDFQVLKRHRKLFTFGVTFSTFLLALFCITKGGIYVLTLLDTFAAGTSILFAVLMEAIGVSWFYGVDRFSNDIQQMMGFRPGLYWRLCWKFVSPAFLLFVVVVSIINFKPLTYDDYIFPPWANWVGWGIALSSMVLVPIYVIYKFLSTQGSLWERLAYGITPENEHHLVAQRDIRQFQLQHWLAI

{"COMPOUND": "CCCC(C(=O)c1ccc2c(c1)OCO2)N1CCCC1 (stereo not shown) [MDPV]", "Ki": "166 nM"}

====

# MEASUREMENT TARGET: UniProt:P31645
# Sequence (P31645 whole entry): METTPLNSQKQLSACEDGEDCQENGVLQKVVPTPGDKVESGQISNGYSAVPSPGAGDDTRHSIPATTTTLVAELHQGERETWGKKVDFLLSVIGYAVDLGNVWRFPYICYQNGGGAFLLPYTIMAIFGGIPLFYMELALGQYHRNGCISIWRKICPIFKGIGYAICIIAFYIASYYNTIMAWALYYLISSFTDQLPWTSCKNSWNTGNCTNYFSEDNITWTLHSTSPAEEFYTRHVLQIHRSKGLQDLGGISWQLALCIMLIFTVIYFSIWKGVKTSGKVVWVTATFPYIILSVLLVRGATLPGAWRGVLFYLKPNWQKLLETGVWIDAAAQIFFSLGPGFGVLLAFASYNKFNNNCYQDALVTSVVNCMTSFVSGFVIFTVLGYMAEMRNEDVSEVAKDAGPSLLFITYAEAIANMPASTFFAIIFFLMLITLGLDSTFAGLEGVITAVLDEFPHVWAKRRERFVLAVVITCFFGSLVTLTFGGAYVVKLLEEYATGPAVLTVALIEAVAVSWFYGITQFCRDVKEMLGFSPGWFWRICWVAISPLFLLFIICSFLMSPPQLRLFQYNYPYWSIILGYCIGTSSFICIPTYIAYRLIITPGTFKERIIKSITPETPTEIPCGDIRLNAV
pKi: −log10 of the molar value.

{"MOLECULE": "CCCC(C(=O)c1ccc2c(c1)OCO2)N1CCCC1 (stereo not shown)", "MEASUREMENT TARGET": "UniProt:P31645", "pKi": 5.81}
